Test system: K12877-001-R-J1-PDC complex spheroid viability;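 also: tumour cells co-cultured with HUVEC and mesenchymal stem cells in spheroids; spheroids exposed to agents for one week before readout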
assay explanation: Anticancer human tumor K12877-001-R-J1-PDC patient-derived lung adenocarcinoma cell line growth inhibition [RAS]; active = viability on the fitted dose curve at most 10% of control; inactive = the rest
condition details: second compound 0.000949 µM; first compound 0.316 µM
Possible outcomes: y for active, n for inactive

{"columns": ["compound", "assigned class"],
 "data": [
  ["Nc1ccn(C2OC(CO)C(O)C2(F)F)c(=O)n1 (configuration not stated) + CCn1c(-c2cccnc2C(C)OC)c2c3cc(ccc31)N1CCOC(CC(NC(=O)C(C(C)C)N(C)C(=O)C3(F)CCN(C(=O)C#CC(C)(C)N(C)C)CC3)C(=O)N3CCCC(N3)C(=O)OCC(C)(C)C2)C1", "y"],
  ["CC(C)NCC(C(=O)N1CCN(c2ncnc3c2C(C)CC3O)CC1)c1ccc(Cl)cc1 (configuration not stated) + CCn1c(-c2cc(N3CCN(C)CC3)cnc2C(C)OC)c2c3cc(ccc31)-c1csc(n1)CC(NC(=O)C1CC1C)C(=O)N1CCCC(N1)C(=O)OCC(C)(C)C2", "n"]
]}
